meta.source: patent US10294234B2

- assayRemarks: 3H Human Predicted Clearance Assay (tritiated analogs)
- Format: in vitro ADME
- measurementSetup: human, 1 uM
measuredParameter: 3H Human Predicted Cl.

Worked cases, 3H Human Predicted Cl. given:
COC(=O)N[C@H](C(=O)N[C@@H](Cc1ccc(C#Cc2ccc(N3CC4CC(C3)N4C3COC3)nc2)cc1)[C@@H](O)CN(Cc1c(F)cc(-c2ccn(C(F)F)n2)cc1F)NC(=O)[C@@H](NC(=O)OC)C(C)(C)C(F)(F)F)C(C)(C)C(F)(F)F	0.09
COC(=O)N[C@H](C(=O)N[C@@H](Cc1ccc(-c2cnc(N3CC4CCC(C3)N4C3COC3)nc2)cc1)[C@@H](O)CN(Cc1c(F)cc(-c2ccn(C(F)F)n2)cc1F)NC(=O)[C@@H](NC(=O)OC)C(C)(C)C(F)(F)F)C(C)(C)C(F)(F)F	0.15
COC(=O)N[C@H](C(=O)NN(Cc1c(F)cc(-c2ccn(C(F)F)n2)cc1F)C[C@H](O)[C@H](Cc1ccc(C#Cc2cnc(N3CC4CCC(C3)N4C3COC3)nc2)cc1)NC(=O)[C@@H](NC(=O)OC)C(C)(C)C(F)(F)F)C(C)(C)C	0.07
COC(=O)N[C@H](C(=O)N[C@@H](Cc1ccc(-c2ccc(N3CC4CCC(C3)N4C3COC3)nc2)cc1)[C@@H](O)CN(Cc1c(F)cc(-c2ccn(C(F)F)n2)cc1F)NC(=O)[C@@H](NC(=O)OC)C(C)(C)C(F)(F)F)C(C)(C)C(F)(F)F	0.11
COC(=O)N[C@H](C(=O)NN(Cc1c(F)cc(-c2ccn(C(F)F)n2)cc1F)C[C@H](O)[C@H](Cc1ccc(C#Cc2ccc(N3CC4CCC(C3)N4C3COC3)nc2)cc1)NC(=O)[C@@H](NC(=O)OC)C(C)(C)C(F)(F)F)C(C)(C)C	0.09
COC(=O)N[C@H](C(=O)N[C@@H](Cc1ccc(C#Cc2cnc(N3CC4CCC(C3)N4C3COC3)nc2)cc1)[C@@H](O)CN(Cc1c(F)cc(-c2ncccn2)cc1F)NC(=O)[C@@H](NC(=O)OC)C(C)(C)C(F)(F)F)C(C)(C)C(F)(F)F	0.08
COC(=O)N[C@H](C(=O)N[C@@H](Cc1ccc(C#Cc2ccc(N3CC4CCC(C3)N4C3COC3)nc2)cc1)[C@@H](O)CN(Cc1c(F)cc(-c2ncccn2)cc1F)NC(=O)[C@@H](NC(=O)OC)C(C)(C)C(F)(F)F)C(C)(C)C(F)(F)F	0.08
COC(=O)N[C@H](C(=O)N[C@@H](Cc1ccc(C#Cc2ccc(N3CC4CCC(C3)N4C3COC3)nc2)cc1)[C@@H](O)CN(Cc1c(F)cc(-c2ccn(C3CC3)n2)cc1F)NC(=O)[C@@H](NC(=O)OC)C(C)(C)C(F)(F)F)C(C)(C)C(F)(F)F	0.05
COC(=O)N[C@H](C(=O)N[C@@H](Cc1ccc(C#Cc2cnc(N3CC4CCC(C3)N4C3COC3)nc2)cc1)[C@@H](O)CN(Cc1c(F)cc(-c2ccn(C(F)F)n2)cc1F)NC(=O)[C@@H](NC(=O)OC)C(C)(C)C(F)(F)F)C(C)(C)C(F)(F)F	0.02

Next:
Query (molecule): COC(=O)N[C@H](C(=O)N[C@@H](Cc1ccc(C#Cc2ccc(N3CC4CCC(C3)N4C3COC3)nc2)cc1)[C@@H](O)CN(Cc1c(F)cc(-c2ccn(CC(F)F)n2)cc1F)NC(=O)[C@@H](NC(=O)OC)C(C)(C)C(F)(F)F)C(C)(C)C(F)(F)F ; field requested: 3H Human Predicted Cl.
0.04
